Record form. Attribute: residual activity. Fill in for each entry.
biological target: Ribosomal protein S6 kinase alpha-3 (Homo sapiens); conditions: at 10 µM
Give bare numbers, in %.

Guide cases for residual activity, answers given:
# input Would you kindly share the measured residual activity for C[S+]([O-])c1ccc(-c2nc(-c3ccc(F)cc3)c(-c3ccncc3)[nH]2)cc1 (centres undefined) ?
# output 97

# input Moving on to COc1ccc2c(c[n+](C)c3c4cc5c(cc4ccc23)OCO5)c1OC
# output 91

Working through the 5 molecules below one at a time, give residual activity for each.
1. CCn1cnc2c(Nc3cccc(Cl)c3)nc(N[C@@H]3CCCC[C@@H]3N)nc21
2. COc1cc2ncnc(Nc3ccc(OCc4ccccc4)cc3)c2cc1OC
3. O=[N+]([O-])/C=C/c1ccc2c(c1)OCO2
4. O=C1c2ccccc2-c2nc3nnnn3nc21
5. COc1cc(OC)c(/C=C2\C(=O)Nc3ccccc32)c(OC)c1

# output
4
46
100
53
57

Working through the 2 molecules below one at a time, give residual activity for each.
1. CCc1nc(-c2ccc(OC)cc2)[nH]c1-c1ccncc1
2. COC(=O)[C@@]1(O)C[C@H]2O[C@]1(C)n1c3ccccc3c3c4c(c5c6ccccc6n2c5c31)C(=O)NC4

# output
1: 55; 2: 1
